Percent of Cells Positive for ALDEFLUOR ™ at 100 nM values, listed per item
Target: UniProt:P47895
Sequence (P47895 1-512): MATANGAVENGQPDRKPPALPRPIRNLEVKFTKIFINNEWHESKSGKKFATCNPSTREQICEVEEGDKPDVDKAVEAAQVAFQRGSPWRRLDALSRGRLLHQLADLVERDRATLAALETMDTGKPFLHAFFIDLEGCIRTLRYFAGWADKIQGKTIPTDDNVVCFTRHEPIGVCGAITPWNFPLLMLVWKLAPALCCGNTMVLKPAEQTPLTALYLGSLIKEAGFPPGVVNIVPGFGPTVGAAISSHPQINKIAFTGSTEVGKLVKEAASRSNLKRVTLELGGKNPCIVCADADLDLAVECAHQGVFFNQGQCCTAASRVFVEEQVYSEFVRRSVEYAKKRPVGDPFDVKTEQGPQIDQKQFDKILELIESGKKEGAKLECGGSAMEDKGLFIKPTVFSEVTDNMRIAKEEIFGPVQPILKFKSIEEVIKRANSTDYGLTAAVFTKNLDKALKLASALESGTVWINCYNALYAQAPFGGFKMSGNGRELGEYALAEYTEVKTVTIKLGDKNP
Test: ALDEFLUOR assay in SUM159-M1a-Aldh1a3 cells
Format: cell-based
Parameters: lentiviral vectors containing either the vector backbone or full-length human Aldh1a3; expressed in transfected cells; host or cells: SUM159-M1a human breast cancer cells, lentiviral pLex vector
Conditions: SUM159-M1a-Aldh1a3 cells; compound at 100 nM
Numeric only. Scale: %

INSERT INTO measurements (molecule, system_name, unit_spec, test_value) VALUES
  ('O=C1CCc2cc(NCc3cc[nH]c3)c(F)cc2N1 [Compound 17]', 'UniProt:P47895', '%', 75),
  ('CCc1cnccc1C(=O)Nc1cc2c(cc1F)NC(=O)CC2 [Compound 1]', 'UniProt:P47895', '%', 0.73),
  ('Cc1cc(C(=O)Nc2cc3c(cc2F)NC(=O)CC3)ccn1 [Compound 16]', 'UniProt:P47895', '%', 55),
  ('O=C1CCc2cc(NC(=O)c3ccncc3)c(F)cc2N1 [Compound 2]', 'UniProt:P47895', '%', 70),
  ('Cc1ccc(C(=O)Nc2ccc3c(c2)CCC(=O)N3)cc1C [Compound 11]', 'UniProt:P47895', '%', 76);

[in] I'd like to know its Percent of Cells Positive for ALDEFLUOR ™ at 100 nM. The molecule in question is Cc1ccccc1C(=O)Nc1ccc2c(c1)CCC(=O)N2 [Compound 13]
[out] 45

[in] I'd like to know its Percent of Cells Positive for ALDEFLUOR ™ at 100 nM. The molecule in question is CCc1cnccc1CNc1cc2c(cc1F)NC(=O)CC2 [Compound 3]
[out] 34

[in] I'd like to know its Percent of Cells Positive for ALDEFLUOR ™ at 100 nM. The molecule in question is Cc1ccc(C)c(CNc2ccc3c(c2)CCC(=O)N3)c1 [Compound 10]
[out] 42

[in] I'd like to know its Percent of Cells Positive for ALDEFLUOR ™ at 100 nM. The molecule in question is Cc1ccc(C(=O)Nc2ccc3c(c2)CCC(=O)N3)c(C)c1 [Compound 12]
[out] 74

[in] I'd like to know its Percent of Cells Positive for ALDEFLUOR ™ at 100 nM. The molecule in question is O=C1CCc2cc(NCc3ccccc3)ccc2N1 [Compound 14]
[out] 68

[in] I'd like to know its Percent of Cells Positive for ALDEFLUOR ™ at 100 nM. The molecule in question is Cc1cnccc1C(=O)Nc1cc2c(cc1F)NC(=O)CC2 [Compound 15]
[out] 63
